Assay: The drug is tested on WLS-170 corresponding to human gut metagenome with ENA study accession number: PRJEB37062 and ENA sample accession number: ERS12561762 for biotransformation under anaerobic condition. The drug concentrations were measured over 9 timepoints collected between 0 and 24 hours of incubation by liquid-chromatography-coupled mass spectrometry (LC–MS); also: call rule not given here
Settings: 2 µM
readout-label: Bacterial Biotransformation

Worked examples, 5 compounds total:
[
  {
    "compound": "CCN(CC)CCNC(=O)c1cc(Cl)c(N)cc1OC [METOCLOPRAMIDE]",
    "Bacterial Biotransformation": "Compound NOT metabolized"
  },
  {
    "compound": "Clc1ccc(Cn2c(CN3CCCC3)nc3ccccc32)cc1 [CLEMIZOLE]",
    "Bacterial Biotransformation": "Compound metabolized"
  },
  {
    "compound": "COc1ccc2[nH]c([S+]([O-])Cc3ncc(C)c(OC)c3C)nc2n1 (stereo not drawn) [TENATOPRAZOLE]",
    "Bacterial Biotransformation": "Compound NOT metabolized"
  },
  {
    "compound": "COC(=O)C1=C(C)NC(C)=C(C(=O)OC(C)C)C1c1cccc2nonc12 (stereo not drawn) [ISRADIPINE]",
    "Bacterial Biotransformation": "Compound metabolized"
  },
  {
    "compound": "CC(C)(C)NC[C@H](O)COc1ccccc1C1CCCC1.CC(C)(C)NC[C@H](O)COc1ccccc1C1CCCC1.O=S(=O)(O)O [PENBUTOLOL SULFATE]",
    "Bacterial Biotransformation": "Compound metabolized"
  }
]

// sample CC(C)N(CCC(C(N)=O)(c1ccccc1)c1ccccn1)C(C)C.O=P(O)(O)O (stereo not drawn) [DISOPYRAMIDE PHOSPHATE] , its Bacterial Biotransformation was Compound NOT metabolized

// sample O=c1n(CCCN2CCN(c3cccc(Cl)c3)CC2)nc2ccccn12 [TRAZODONE] , its Bacterial Biotransformation was Compound NOT metabolized

// sample CN1C(=O)CCS(=O)(=O)C1c1ccc(Cl)cc1 (stereo not drawn) [CHLORMEZANONE] , its Bacterial Biotransformation was Compound metabolized

// sample C[C@@H]1C[C@H]2[C@@H]3CCC4=CC(=O)C=C[C@]4(C)[C@@]3(F)[C@@H](O)C[C@]2(C)[C@@]1(O)C(=O)CO [DEXAMETHASONE] , its Bacterial Biotransformation was Compound NOT metabolized

// sample CCOC(=O)[C@H](CCc1ccccc1)N[C@H]1CCc2ccccc2N(CC(=O)O)C1=O [BENAZEPRIL] , its Bacterial Biotransformation was Compound metabolized

// sample CC(=O)OCC(=O)[C@@]1(O)[C@@H](C)C[C@H]2[C@@H]3CCC4=CC(=O)C=C[C@]4(C)[C@@]3(F)[C@@H](O)C[C@@]21C [BETAMETHASONE ACETATE] , its Bacterial Biotransformation was Compound metabolized

// sample Cc1ccc(-c2cc(C(F)(F)F)nn2-c2ccc(S(N)(=O)=O)cc2)cc1 [CELECOXIB] , its Bacterial Biotransformation was Compound NOT metabolized

// sample NC(=O)N1c2ccccc2CC(=O)c2ccccc21 [OXCARBAZEPINE] , its Bacterial Biotransformation was Compound NOT metabolized

// sample CCc1nn(CCCN2CCN(c3cccc(Cl)c3)CC2)c(=O)n1CCOc1ccccc1 [NEFAZODONE] , its Bacterial Biotransformation was Compound metabolized

// sample C=CCc1ccccc1OCC(O)CNC(C)C (stereo not drawn) [ALPRENOLOL] , its Bacterial Biotransformation was Compound metabolized

// sample CC(C)(C#N)c1cc(Cn2cncn2)cc(C(C)(C)C#N)c1 [ANASTROZOLE] , its Bacterial Biotransformation was Compound metabolized

// sample CN1CCOC(c2ccccc2)c2ccccc2C1 (stereo not drawn) [NEFOPAM] , its Bacterial Biotransformation was Compound NOT metabolized

// sample CN1C(C(=O)Nc2ccccn2)=C(O)c2sccc2S1(=O)=O [TENOXICAM] , its Bacterial Biotransformation was Compound NOT metabolized
